# binding signal values compiled below
# target-of-assay: GST-Co-NF-kB (Capsaspora owczarzaki, UniProt F1ARL5 200-546)
# Sequence: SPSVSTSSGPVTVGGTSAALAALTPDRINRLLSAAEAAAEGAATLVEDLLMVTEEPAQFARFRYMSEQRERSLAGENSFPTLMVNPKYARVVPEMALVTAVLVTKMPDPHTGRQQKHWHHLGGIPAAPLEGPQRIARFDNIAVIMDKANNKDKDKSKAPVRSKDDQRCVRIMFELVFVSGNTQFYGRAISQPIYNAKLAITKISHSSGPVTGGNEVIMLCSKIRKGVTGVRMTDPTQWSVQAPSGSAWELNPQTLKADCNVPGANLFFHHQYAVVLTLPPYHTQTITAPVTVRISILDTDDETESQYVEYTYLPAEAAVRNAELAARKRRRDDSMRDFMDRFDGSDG
# method-notes: protein-binding microarray (PBM); PBM: ~300 nM protein, 6 mM HEPES pH 7.8, 80 mM KCl, 0.5 mM EDTA, 0.5 mM EGTA, 6% glycerol, 35 ng/ul poly-dIdC, 1% milk, 1 h, room temperature; Ap Aiptasia and Nv Nematostella (sea anemones) / Co Capsaspora / Aq Amphimedon (sponge) / Dm Drosophila / Hu human; RHD is the Rel homology domain; high values mean tight binding
# experimental-parameters: dsDNA, one strand shown

ordered-residues	target-of-assay	binding signal (z-score)
CCGATTAACATCAATTCCCATCCTGATGTTAATCGGGTCTTGATTCGCTTGACGCTGCTG	GST-Co-NF-kB (Capsaspora owczarzaki, UniProt F1ARL5 200-546)	1.43
CCGATTAACATCAAAAAATCCCTTGATGTTAATCGGGTCTTGATTCGCTTGACGCTGCTG	GST-Co-NF-kB (Capsaspora owczarzaki, UniProt F1ARL5 200-546)	1.77
CCGATTAACATCAGGACTCTCCCTGATGTTAATCGGGTCTTGATTCGCTTGACGCTGCTG	GST-Co-NF-kB (Capsaspora owczarzaki, UniProt F1ARL5 200-546)	1.1
CCGATTAACATCAGTATGGGAAATGATGTTAATCGGGTCTTGATTCGCTTGACGCTGCTG	GST-Co-NF-kB (Capsaspora owczarzaki, UniProt F1ARL5 200-546)	2.14
CCGATTAACATCAGGGGGTACACTGATGTTAATCGGGTCTTGATTCGCTTGACGCTGCTG	GST-Co-NF-kB (Capsaspora owczarzaki, UniProt F1ARL5 200-546)	4.33
